Experiment: Toxicity liver stage against HepG2, at 10uM
Assay type: cell-based
Parameters: test concentration 10 uM, cell line HepG2-A16-CD81EGFP
Settings: human, HepG2-A16-CD81EGFP cells; read-out: INHIBITION
Please go through the items and note down their cytotoxicity at 10 µM.
Unit % implied. Number only.

Req: What does the record list as cytotoxicity at 10 µM for `COC(=O)c1cc(OCC2CCC2)cc(C(=O)N[C@@H](C)CO)c1` ?
Resp: -2.18

Req: What does the record list as cytotoxicity at 10 µM for CC1COc2ccccc2N1C(=O)c1ccc(=O)n(C)c1 (stereo unspecified) ?
Resp: -3.42

Req: What does the record list as cytotoxicity at 10 µM for `Cc1ccc(-c2nc(CN3CCc4c(ncn4C)C3)cs2)o1` ?
Resp: -11.3

Req: What does the record list as cytotoxicity at 10 µM for CC(CNC(=O)CCCc1ccccn1)c1ccsc1 (stereo unspecified) ?
Resp: 7.42

Req: What does the record list as cytotoxicity at 10 µM for `Cn1c(-c2ccc(F)cc2)cn2cc(C(=O)N3CC[C@@H](O)C3)nc2c1=O` ?
Resp: 11.1

Req: What does the record list as cytotoxicity at 10 µM for CN1CCC(CNC(=O)CCSc2ccc3c(c2)OCCO3)C1 (stereo unspecified) ?
Resp: -3.13

----------
Please go through the items and note down their cytotoxicity at 10 µM.
Experiment: Toxicity liver stage against HepG2, at 10uM
Assay type: cell-based
Set-up: test concentration 10 uM, cell line HepG2-A16-CD81EGFP
Conditions: human, HepG2-A16-CD81EGFP cells; read-out: INHIBITION
Unit % implied. Number only.

Req: What does the record list as cytotoxicity at 10 µM for Cc1cc(C)n(CC2CCCN2C(=O)c2c[nH]c(=O)c(Cl)c2)n1 (stereo unspecified) ?
Resp: 1.53

Req: What does the record list as cytotoxicity at 10 µM for CC(Cc1cccc(Cl)c1)NC(=O)NCc1ncnn1C (stereo unspecified) ?
Resp: 8.52

Req: What does the record list as cytotoxicity at 10 µM for `CCc1cnc(N)nc1NCCC(=O)NC1CCCCC1` ?
Resp: -42.1

Req: What does the record list as cytotoxicity at 10 µM for `CS(=O)(=O)N1CCc2nc(NC(=O)Nc3c(F)cccc3F)sc2C1` ?
Resp: -10.4

Req: What does the record list as cytotoxicity at 10 µM for `CCC(=O)N1CCC(c2nc(N3CCOCC3)ncc2S(C)(=O)=O)CC1` ?
Resp: 3.65

Req: What does the record list as cytotoxicity at 10 µM for O=C(CC1CCCC1)N1CCCC1c1nc(O)cc(-c2ccccn2)n1 (stereo unspecified) ?
Resp: -3.73

----------
Assay: Toxicity liver stage against HepG2, at 10uM
Type: cell-based
Set-up: test concentration 10 uM, cell line HepG2-A16-CD81EGFP
Conditions: human, HepG2-A16-CD81EGFP cells; read-out: INHIBITION
readout: cytotoxicity at 10 µM (%)
Unit % implied. Number only.

Req: What does the record list as cytotoxicity at 10 µM for `CCc1nnsc1C(=O)NCCc1nnc2n1CCC2` ?
Resp: 3.16

Req: What does the record list as cytotoxicity at 10 µM for `Cn1cc(CN2CCCC23CCN(Cc2nccn2C)CC3)cn1` ?
Resp: -5.64

Req: What does the record list as cytotoxicity at 10 µM for `CC(=O)NCCNc1cc(C)nc2cc(C)nn12` ?
Resp: -6.91

Req: What does the record list as cytotoxicity at 10 µM for `N[C@@H]1c2ccccc2C2(CCN(C(=O)c3cncc(Cl)c3)CC2)[C@H]1O` ?
Resp: -2.78

Req: What does the record list as cytotoxicity at 10 µM for `CS(=O)(=O)N1CCC(NC(=O)COc2ccc(Br)cc2Cl)CC1` ?
Resp: 3.25

Req: What does the record list as cytotoxicity at 10 µM for `CC(=O)c1cc(CN2C[C@@H](C(=O)O)[C@H](c3cccnc3)C2)cs1` ?
Resp: 4.11

Req: What does the record list as cytotoxicity at 10 µM for Cc1cc(C)c(CNC(=O)N2CCCC2c2ccccc2)c(=O)[nH]1 (stereo unspecified) ?
Resp: -0.818

Req: What does the record list as cytotoxicity at 10 µM for Cc1cc(C(=O)NCc2ccc(F)cc2)c2c(C3CCNC3)noc2n1 (stereo unspecified) ?
Resp: 7.08

Req: What does the record list as cytotoxicity at 10 µM for `CC(C)=CCN1CCN(C(=O)CSc2ccccn2)[C@H]2CS(=O)(=O)C[C@H]21` ?
Resp: 4.97

Req: What does the record list as cytotoxicity at 10 µM for Cn1ccnc1-c1ccc(NCCC2COc3ccccc3O2)nn1 (stereo unspecified) ?
Resp: 9.56

Req: What does the record list as cytotoxicity at 10 µM for `COc1cc(C(=O)NCCCc2ccccc2)on1` ?
Resp: -2.1

Req: What does the record list as cytotoxicity at 10 µM for Cn1ccc(C(=O)N2CCC3(CC2)CC(Nc2cnccn2)CO3)n1 (stereo unspecified) ?
Resp: 4.35

Req: What does the record list as cytotoxicity at 10 µM for `O=C(c1ccsc1)N1CCc2c(COCC3CC3)cncc2C1` ?
Resp: 1.65

Req: What does the record list as cytotoxicity at 10 µM for OC(COCc1cccs1)CN1CCc2c(ncn2C2CC2)C1 (stereo unspecified) ?
Resp: -4.29

Req: What does the record list as cytotoxicity at 10 µM for O=C(CN1CCCCC1Cn1cccn1)NC1CCN(C2CC2)CC1 (stereo unspecified) ?
Resp: -4.43

Req: What does the record list as cytotoxicity at 10 µM for `O=C(CN(Cc1ccccc1)CC1CCOCC1)Nc1nccs1` ?
Resp: -13.5

Req: What does the record list as cytotoxicity at 10 µM for CC[C@H](C)[C@@H](CO)NC(C)Cc1ccccc1F (stereo partly specified) ?
Resp: -7.36

Req: What does the record list as cytotoxicity at 10 µM for `CCCN1CCN(C(=O)Cc2cccnc2)[C@H]2CS(=O)(=O)C[C@H]21` ?
Resp: -8.26

Req: What does the record list as cytotoxicity at 10 µM for `CN(C)C(=O)CN1C(=O)CCC12CCN(Cc1ccc(F)cc1)CC2` ?
Resp: 7.8

Req: What does the record list as cytotoxicity at 10 µM for O=C(O)C1CN(Cc2cccc(-c3ccccn3)c2)CCO1 (stereo unspecified) ?
Resp: -10.5

Req: What does the record list as cytotoxicity at 10 µM for `N#Cc1ccccc1C(=O)Nc1cccc(CN2CCC(CO)CC2)c1` ?
Resp: -140

----------
Test: Toxicity liver stage against HepG2, at 10uM
Format: cell-based
Set-up: test concentration 10 uM, cell line HepG2-A16-CD81EGFP
Details: human, HepG2-A16-CD81EGFP cells; read-out: INHIBITION
Please go through the items and note down their cytotoxicity at 10 µM.
Unit % implied. Number only.

Req: What does the record list as cytotoxicity at 10 µM for `CC(C)(N)CNS(=O)(=O)Cc1cccc2cccnc12` ?
Resp: 14.5

Req: What does the record list as cytotoxicity at 10 µM for `O=C(CCCc1cn[nH]c1)N1C[C@@H](CN2CCCCCC2)[C@@H](CO)C1` ?
Resp: 1.52

Req: What does the record list as cytotoxicity at 10 µM for `O=C(c1cnn(-c2ccccc2)c1)N1CCN(c2cnccn2)CC1` ?
Resp: 5.37

Req: What does the record list as cytotoxicity at 10 µM for `CC(C)C(=O)Nc1cc(C(C)(C)C)nn1-c1ccccn1` ?
Resp: -4.1

Req: What does the record list as cytotoxicity at 10 µM for `Cc1cnc(NC(=O)N2CCC(N3CCCCC3=O)CC2)s1` ?
Resp: -0.772

----------
Please go through the items and note down their cytotoxicity at 10 µM.
Experiment: Toxicity liver stage against HepG2, at 10uM
Type: cell-based
Design: test concentration 10 uM, cell line HepG2-A16-CD81EGFP
Settings: human, HepG2-A16-CD81EGFP cells; read-out: INHIBITION
Unit % implied. Number only.

Req: What does the record list as cytotoxicity at 10 µM for `CC(=O)NCCCSCCOc1cccc(C#N)c1` ?
Resp: 11.4

Req: What does the record list as cytotoxicity at 10 µM for `CN(Cc1cncnc1)[C@@H]1CN(C(=O)C2CC2)[C@@H]2CCCO[C@H]12` ?
Resp: -112

Req: What does the record list as cytotoxicity at 10 µM for CCNC(=O)C1CCN(Cc2ccc(C(=O)Nc3nnc(C)s3)cc2)C1 (configuration not stated) ?
Resp: -0.834

Req: What does the record list as cytotoxicity at 10 µM for `CS(=O)(=O)NC1CCN(C(=O)c2ccc(F)cc2)CC1` ?
Resp: 2.3

Req: What does the record list as cytotoxicity at 10 µM for `Cc1nn(CCNS(=O)(=O)NCc2ccccc2)c(C)c1Cl` ?
Resp: -6.49

Req: What does the record list as cytotoxicity at 10 µM for `COCCC(=O)N1CCN(CC2CC2)c2ncccc2C1` ?
Resp: -96.7

Req: What does the record list as cytotoxicity at 10 µM for `CCC(CC)NC(=O)Cn1cc(C(N)=O)c(-c2ccccc2)n1` ?
Resp: -6.87

Req: What does the record list as cytotoxicity at 10 µM for `CCNC(=O)C1CCN(Cn2nc(-c3ccccc3)oc2=O)CC1` ?
Resp: 11.5

Req: What does the record list as cytotoxicity at 10 µM for `CCOc1ccccc1OC1CCN(C(=O)c2cnns2)CC1` ?
Resp: -3.14

Req: What does the record list as cytotoxicity at 10 µM for `Cc1cccc(NC(=O)c2sc(C)nc2C)n1` ?
Resp: 5.52

Req: What does the record list as cytotoxicity at 10 µM for `Cc1cccnc1NC(=O)c1ccc(F)c(S(=O)(=O)N2CCC2)c1` ?
Resp: 4.5

Req: What does the record list as cytotoxicity at 10 µM for Cc1ccc(C2CN(Cc3cccc4[nH]ccc34)CCO2)nc1 (configuration not stated) ?
Resp: -35.6

Req: What does the record list as cytotoxicity at 10 µM for Cc1nccn1C1CCCN(C(=O)c2cccc(OCC(N)=O)c2)C1 (configuration not stated) ?
Resp: -13

Req: What does the record list as cytotoxicity at 10 µM for `COc1ccc(-c2cc(CC3(NCc4ccc(C)o4)COC3)no2)cc1` ?
Resp: -5.88

Req: What does the record list as cytotoxicity at 10 µM for CC(Cn1cccn1)NC(=O)Nc1ccc(N2CCCC2)nc1 (configuration not stated) ?
Resp: -0.708

Req: What does the record list as cytotoxicity at 10 µM for `Cc1nc(CCCNC(=O)c2coc(CN3CCOCC3)c2)sc1C` ?
Resp: -2.11

Req: What does the record list as cytotoxicity at 10 µM for `O=C(CCCc1ccc(F)cc1)N1C[C@@H](CN2CCOCC2)[C@@H](CO)C1` ?
Resp: -11.8

Req: What does the record list as cytotoxicity at 10 µM for CSCC(C)(O)CNS(=O)(=O)Cc1ccc(F)cc1 (configuration not stated) ?
Resp: -1.12

Req: What does the record list as cytotoxicity at 10 µM for CCN1CCC2(CC1)CC(NC(=O)c1c[nH]cn1)c1ccccc1O2 (configuration not stated) ?
Resp: -103

Req: What does the record list as cytotoxicity at 10 µM for Cc1ccc(-c2cc(N)c(=O)n(C(C)C(=O)NCC3CCCCC3)n2)s1 (configuration not stated) ?
Resp: -13.9

Req: What does the record list as cytotoxicity at 10 µM for CCCc1nc(C)cc(N2CCNC(C(=O)NCc3cccnc3)C2)n1 (configuration not stated) ?
Resp: -7

Req: What does the record list as cytotoxicity at 10 µM for Cc1nn(C)c(C)c1NC(=O)CN1CCCC1c1noc(C(C)C)n1 (configuration not stated) ?
Resp: -1.08

Req: What does the record list as cytotoxicity at 10 µM for CC(C)N1CCC2(CC1)CC(NS(C)(=O)=O)c1ccccc1O2 (configuration not stated) ?
Resp: 7.16

Req: What does the record list as cytotoxicity at 10 µM for `COCCOc1ccc(C(=O)N[C@@H]2CNCCC[C@H]2O)cc1` ?
Resp: 4.67

Req: What does the record list as cytotoxicity at 10 µM for O=C1CN(C(=O)C2CCCOC2)CCN1Cc1ccc(Cl)cc1 (configuration not stated) ?
Resp: -152

Req: What does the record list as cytotoxicity at 10 µM for CNc1cncc(C2CCCN2C(=O)c2ccc3nc(C)[nH]c3c2)n1 (configuration not stated) ?
Resp: -8.94

Req: What does the record list as cytotoxicity at 10 µM for COc1ccc(CNCC2CCN(CC(C)O)CC2)c2ccccc12 (configuration not stated) ?
Resp: -11.5

Req: What does the record list as cytotoxicity at 10 µM for c1ccc(C(CNc2ncccn2)N2CCOCC2)nc1 (configuration not stated) ?
Resp: -47.5

Req: What does the record list as cytotoxicity at 10 µM for Cc1ccccc1-n1ncc(C(=O)N2CCCC2c2cnn(C)c2)c1C (configuration not stated) ?
Resp: -4.84

Req: What does the record list as cytotoxicity at 10 µM for `Cc1ccc(C(=O)NCc2ccc(N(C)C)cc2)cn1` ?
Resp: -6.23

Req: What does the record list as cytotoxicity at 10 µM for `CCOc1ccc(NC(=O)N(C)Cc2cnn(C)c2)c(C)c1` ?
Resp: -9.63

Req: What does the record list as cytotoxicity at 10 µM for `O=C(NCCc1cnccn1)C1(N2CCCCC2)Cc2ccccc2C1` ?
Resp: -7.82

Req: What does the record list as cytotoxicity at 10 µM for `CN(CCN1CCOC1=O)CC(=O)Nc1ccc(Cl)c(Cl)c1` ?
Resp: -52.4

Req: What does the record list as cytotoxicity at 10 µM for `N#Cc1ccc(-c2nnc(CSCCN3CCOCC3)o2)cc1` ?
Resp: -5.08

Req: What does the record list as cytotoxicity at 10 µM for `Nc1ccnc(N2CCC(CCc3ccccc3)(C(=O)O)CC2)n1` ?
Resp: -3.65

Req: What does the record list as cytotoxicity at 10 µM for `O=C(NC1CC1)C1=CC2(CCN(CCO)CC2)c2ccccc21` ?
Resp: 1.41

Req: What does the record list as cytotoxicity at 10 µM for Cc1cccc(CN2CCCCC2c2n[nH]cc2-c2cc(C)no2)c1 (configuration not stated) ?
Resp: 6.5
